System: Karpas 422 cells
Assay: Karpas 422 cell viability, CTG (Cell Titre Glo) assay
Format: cell-based, human
Conditions: Homo sapiens; Inhibition of proliferation of Karpas 422 cells (EZH2 Y641N); viability measured Day 4, Day 7 or Day 11, time point of the tabulated values not stated
# IC50 per record follows

Consider the following illustrative entries.
# SMILES RECORD, IC50
measured = [
    ("N#Cc1cn2c(NCc3c(F)ccc4c3CCO4)ncc(-c3ccc(-c4nnn[nH]4)cc3)c2n1", "> 500 nM"),
    ("N#Cc1cn2c(NCc3c(F)ccc4c3CCO4)ncc(-c3cncc(C(F)(F)F)c3)c2n1", "250 to 500 nM"),
    ("Cn1cccc(-c2cnc(NCc3c(F)ccc4c3CCO4)n3cc(C#N)nc23)c1=O", "> 500 nM"),
    ("Cc1cc(-c2cnc(NCc3cccc4c3CCO4)n3cc(C(N)=O)nc23)n(C)n1", "250 to 500 nM"),
    ("Cc1cc(-c2cnc(NCc3c(F)ccc4sccc34)n3cc(C#N)nc23)n(C)n1", "> 500 nM"),
]

Test item Cc1nc(-c2cnc(NCc3c(F)ccc4c3CCO4)n3cc(C#N)nc23)c(C)s1 ; Karpas 422 cells; reported IC50 was ≤ 250 nM

Test item Cc1cc(C(=O)N(C)C)ccc1-c1cnc(NCc2c(F)ccc3c2CCO3)n2cc(C#N)nc12 ; Karpas 422 cells; reported IC50 was ≤ 250 nM

Test item Cc1c(-c2cnc(NCc3c(F)ccc4c3CCO4)n3cc(C#N)nc23)cnc(CN(C)C)c1F ; Karpas 422 cells; reported IC50 was ≤ 250 nM

###

Target: purified human, His-tagged PRC2 complex (Homo sapiens, UniProt O75530+Q15910)
Sequence (Q15910 whole entry): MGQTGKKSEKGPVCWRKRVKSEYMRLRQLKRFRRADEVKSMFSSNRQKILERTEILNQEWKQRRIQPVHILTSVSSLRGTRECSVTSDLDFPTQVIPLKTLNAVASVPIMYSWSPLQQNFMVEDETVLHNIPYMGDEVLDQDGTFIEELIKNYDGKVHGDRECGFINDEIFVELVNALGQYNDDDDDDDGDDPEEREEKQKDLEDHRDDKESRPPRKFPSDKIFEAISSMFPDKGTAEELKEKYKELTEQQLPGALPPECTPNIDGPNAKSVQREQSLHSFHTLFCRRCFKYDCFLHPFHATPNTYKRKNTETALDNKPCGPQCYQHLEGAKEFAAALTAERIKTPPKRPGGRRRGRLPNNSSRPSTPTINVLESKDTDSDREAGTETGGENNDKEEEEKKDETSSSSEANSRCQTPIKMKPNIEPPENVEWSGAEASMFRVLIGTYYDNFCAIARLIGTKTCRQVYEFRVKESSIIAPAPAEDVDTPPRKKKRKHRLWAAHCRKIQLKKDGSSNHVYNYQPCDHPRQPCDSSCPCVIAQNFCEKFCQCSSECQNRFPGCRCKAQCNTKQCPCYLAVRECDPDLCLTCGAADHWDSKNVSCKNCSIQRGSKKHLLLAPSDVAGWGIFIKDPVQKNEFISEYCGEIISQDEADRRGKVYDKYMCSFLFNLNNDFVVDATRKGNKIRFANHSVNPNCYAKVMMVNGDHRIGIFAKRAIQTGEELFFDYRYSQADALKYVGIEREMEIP
Sequence (O75530 whole entry): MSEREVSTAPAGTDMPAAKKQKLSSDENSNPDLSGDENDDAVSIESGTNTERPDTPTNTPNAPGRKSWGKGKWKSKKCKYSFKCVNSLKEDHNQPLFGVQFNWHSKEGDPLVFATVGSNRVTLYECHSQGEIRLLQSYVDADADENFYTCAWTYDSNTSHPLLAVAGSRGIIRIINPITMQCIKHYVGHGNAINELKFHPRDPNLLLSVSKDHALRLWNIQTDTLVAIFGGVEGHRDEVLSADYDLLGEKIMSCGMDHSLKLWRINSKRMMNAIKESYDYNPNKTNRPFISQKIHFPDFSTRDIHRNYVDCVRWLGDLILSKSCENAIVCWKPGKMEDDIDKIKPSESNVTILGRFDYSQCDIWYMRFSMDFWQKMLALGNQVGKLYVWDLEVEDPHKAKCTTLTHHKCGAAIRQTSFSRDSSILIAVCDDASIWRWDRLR
Sequence (Q15022 whole entry partner): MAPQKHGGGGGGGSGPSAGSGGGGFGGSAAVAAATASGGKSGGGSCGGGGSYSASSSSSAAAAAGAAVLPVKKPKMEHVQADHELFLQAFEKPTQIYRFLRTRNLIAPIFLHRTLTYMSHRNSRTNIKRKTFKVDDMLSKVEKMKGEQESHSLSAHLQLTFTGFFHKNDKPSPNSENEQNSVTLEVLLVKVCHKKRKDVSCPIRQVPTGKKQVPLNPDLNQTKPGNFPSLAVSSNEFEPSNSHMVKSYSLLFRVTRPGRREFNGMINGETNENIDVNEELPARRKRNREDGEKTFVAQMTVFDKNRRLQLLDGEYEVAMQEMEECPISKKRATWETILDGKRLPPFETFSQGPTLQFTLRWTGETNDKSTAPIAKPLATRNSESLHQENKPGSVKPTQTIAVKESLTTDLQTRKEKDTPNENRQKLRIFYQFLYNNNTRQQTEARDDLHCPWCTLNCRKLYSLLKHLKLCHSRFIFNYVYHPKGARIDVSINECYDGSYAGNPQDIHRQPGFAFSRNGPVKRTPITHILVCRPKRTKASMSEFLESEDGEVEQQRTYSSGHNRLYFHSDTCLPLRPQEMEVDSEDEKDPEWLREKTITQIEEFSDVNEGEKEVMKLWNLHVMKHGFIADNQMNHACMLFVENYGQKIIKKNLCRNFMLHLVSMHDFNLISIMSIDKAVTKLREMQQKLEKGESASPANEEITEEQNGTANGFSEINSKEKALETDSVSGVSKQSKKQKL
Sequence (Q6ZN18 whole entry partner): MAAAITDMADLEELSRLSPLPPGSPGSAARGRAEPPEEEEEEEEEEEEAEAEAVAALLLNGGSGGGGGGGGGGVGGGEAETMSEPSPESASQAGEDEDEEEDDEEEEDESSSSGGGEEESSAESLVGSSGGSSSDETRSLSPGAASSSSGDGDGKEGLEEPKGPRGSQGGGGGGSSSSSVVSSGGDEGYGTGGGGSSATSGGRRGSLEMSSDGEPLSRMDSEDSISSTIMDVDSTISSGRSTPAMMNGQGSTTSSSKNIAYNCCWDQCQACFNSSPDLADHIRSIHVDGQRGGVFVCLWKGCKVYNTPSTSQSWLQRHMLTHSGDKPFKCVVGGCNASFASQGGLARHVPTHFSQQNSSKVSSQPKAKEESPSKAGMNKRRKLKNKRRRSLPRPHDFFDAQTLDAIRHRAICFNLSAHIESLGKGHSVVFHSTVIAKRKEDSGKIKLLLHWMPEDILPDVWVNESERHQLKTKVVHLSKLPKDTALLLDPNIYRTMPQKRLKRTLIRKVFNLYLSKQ
Sequence (Q09028 whole entry partner): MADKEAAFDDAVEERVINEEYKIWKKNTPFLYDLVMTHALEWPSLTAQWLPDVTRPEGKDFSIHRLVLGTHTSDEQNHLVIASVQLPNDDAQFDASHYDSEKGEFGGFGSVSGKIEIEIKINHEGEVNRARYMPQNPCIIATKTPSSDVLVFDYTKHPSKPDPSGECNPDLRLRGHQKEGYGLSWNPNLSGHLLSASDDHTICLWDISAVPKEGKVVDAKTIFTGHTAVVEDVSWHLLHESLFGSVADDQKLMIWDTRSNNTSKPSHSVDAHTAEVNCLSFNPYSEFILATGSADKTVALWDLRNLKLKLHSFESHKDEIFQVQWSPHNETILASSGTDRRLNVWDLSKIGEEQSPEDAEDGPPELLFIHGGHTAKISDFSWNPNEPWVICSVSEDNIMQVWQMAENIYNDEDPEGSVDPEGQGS
Test: Hot Spot HMT assay: inhibition of PRC2 enzymatic activity (transfer of tritiated methyl from SAM to core histone, filter binding)
Format: biochemical
Settings: Inhibition of PRC2-mediated enzymatic activity; 10 nM PRC2 complex, 0.05 mg/ml core histone H3, 1 uM 3H-SAM, 1 hr at 30°C
pIC50: −log10 of the molar value.
METRIC: pIC50

# COMPOUND, pIC50
measured = [
    ("Cc1cc(C(=O)N(C)C)ncc1-c1cnc(NCc2c(F)ccc3c2CCO3)n2cc(C#N)nc12 [Example 76]", "> 7.00"),
]

# compound N#Cc1cn2c(NCc3c(F)ccc4c3CCO4)ncc(-c3ccc(CN4CC(F)(F)C4)cc3)c2n1 [Example 51] ; its pIC50 = > 7.00

# compound Cc1nc(-c2cnc(NCc3c(F)ccc4c3CCO4)n3cc(C#N)nc23)c(C)s1 [Example 145] ; its pIC50 = 6.30 to 7.00

# compound Cc1ccc(-c2cnc(NCc3c(F)ccc4c3CCO4)n3cc(C#N)nc23)c(C)c1 [Example 192] ; its pIC50 = < 6.30

# compound N#Cc1cn2c(NCc3c(F)ccc4c3CCO4)ncc(-c3ccc(C4CCN4)cc3)c2n1 (centres unmarked) [Example 226] ; its pIC50 = 6.30 to 7.00

# compound N#Cc1cn2c(NCc3c(F)ccc4c3CCO4)ncc(-c3cc[nH]c(=O)c3)c2n1 [Example 218] ; its pIC50 = > 7.00

###

# pIC50 per record follows
Target: purified human, His-tagged PRC2 complex (Homo sapiens, UniProt O75530+Q15910)
Assay: Hot Spot HMT assay: inhibition of PRC2 enzymatic activity (transfer of tritiated methyl from SAM to core histone, filter binding)
Format: biochemical
Conditions: Inhibition of PRC2-mediated enzymatic activity; 10 nM PRC2 complex, 0.05 mg/ml core histone H3, 1 uM 3H-SAM, 1 hr at 30°C
pIC50: −log10 of the molar value.

# COMPOUND, OBSERVED RESULT
measured = [
    ("N#Cc1cn2c(NCc3c(F)ccc4c3CCO4)ncc(-c3ccc(CN4CC5CC5C4)cc3)c2n1 (stereo not shown)", "> 7.00"),
    ("Cc1cc(-c2cnc(NCc3c(F)ccc4sccc34)n3cc(C#N)nc23)n(C)n1", "< 6.30"),
    ("Cc1c(-c2cnc(NCc3c(F)ccc4c3CCO4)n3cc(C#N)nc23)ccc(CN(C)C)c1F", "> 7.00"),
]

# compound CNC(=O)c1cn2c(NCc3c(F)ccc4c3CCO4)ncc(-c3cc(C)nn3C)c2n1 ; its pIC50 = > 7.00

# compound N#Cc1cn2c(NCc3c(F)ccc4c3CCO4)ncc(-c3ccc(C4CCCO4)cc3)c2n1 (stereo not shown) ; its pIC50 = > 7.00

# compound N#Cc1cn2c(NCc3c(F)ccc4c3CCO4)ncc(-c3ccc(CN4CC(O)C4)cc3)c2n1 ; its pIC50 = > 7.00

# compound CC(c1ccc(-c2cnc(NCc3c(F)ccc4c3CCO4)n3cc(C#N)nc23)cc1)N(C)C (stereo not shown) ; its pIC50 = > 7.00

# compound Cc1cc(CN(C)C)ccc1-c1cnc(NCc2c(F)ccc3c2CCO3)n2cc(C#N)nc12 ; its pIC50 = 6.30 to 7.00

# compound CNS(=O)(=O)c1ccc(-c2cnc(NCc3c(F)ccc4c3CCO4)n3cc(C#N)nc23)cc1 ; its pIC50 = > 7.00

###

Test system: Karpas 422 cells
Assay: Karpas 422 cell viability, CTG (Cell Titre Glo) assay
Format: cell-based, human
Conditions: Homo sapiens; Inhibition of proliferation of Karpas 422 cells (EZH2 Y641N); viability measured Day 4, Day 7 or Day 11, time point of the tabulated values not stated
# IC50 per record follows

# COMPOUND, TARGET OF ASSAY, METRIC, OBSERVED RESULT
records = [
    ("Cc1c(-c2cnc(NCc3c(F)ccc4c3CCO4)n3cc(C#N)nc23)ccc(CN(C)C)c1F [Example 85]", "Karpas 422 cells", "IC50", "≤ 0.25 µM"),
    ("N#Cc1cn2c(NCc3c(F)ccc4c3CCO4)ncc(-c3cc[nH]c(=O)c3)c2n1 [Example 218]", "Karpas 422 cells", "IC50", "0.25 to 0.5 µM"),
    ("CC(C)Oc1ccc(-c2cnc(NCc3c(F)ccc4c3CCO4)n3cc(C#N)nc23)cn1 [Example 133]", "Karpas 422 cells", "IC50", "> 0.5 µM"),
    ("Cc1nc(CN(C)C)ccc1-c1cnc(NCc2c(F)ccc3c2CCO3)n2cc(C#N)nc12 [Example 152]", "Karpas 422 cells", "IC50", "≤ 0.25 µM"),
]

# compound CNCc1ccc(-c2cnc(NCc3c(F)ccc4c3CCO4)n3cc(C#N)nc23)cc1F [Example 197] ; its IC50 = ≤ 0.25 µM

# compound Cc1cc(S(=O)(=O)N(C)C)ccc1-c1cnc(NCc2c(F)ccc3c2CCO3)n2cc(C#N)nc12 [Example 48] ; its IC50 = ≤ 0.25 µM

# compound Cc1ncc(F)cc1-c1cnc(NCc2c(F)ccc3c2CCO3)n2cc(C#N)nc12 [Example 62] ; its IC50 = ≤ 0.25 µM

# compound Cc1nn(C[C@H](C)O)c(C)c1-c1cnc(NCc2c(F)ccc3c2CCO3)n2cc(C#N)nc12 [Example 65] ; its IC50 = > 0.5 µM

# compound Cc1cc(-c2cnc(NCc3c(F)ccc4c3CCO4)n3cc(C#N)nc23)ccc1CN(C)C [Example 200] ; its IC50 = ≤ 0.25 µM

# compound COCCOc1ccc(-c2cnc(NCc3c(F)ccc4c3CCO4)n3cc(C#N)nc23)c(C)c1 [Example 206] ; its IC50 = 0.25 to 0.5 µM

# compound CN(C)S(=O)(=O)c1ccc(-c2cnc(NCc3c(F)ccc4c3CCO4)n3cc(C#N)nc23)cc1 [Example 58] ; its IC50 = ≤ 0.25 µM

# compound COC1CCN(Cc2ccc(-c3cnc(NCc4c(F)ccc5c4CCO5)n4cc(C#N)nc34)cc2)C1 (stereo not shown) [Example 53] ; its IC50 = ≤ 0.25 µM

# compound CCOP(=O)(OCC)c1ccc(-c2cnc(NCc3c(F)ccc4c3CCO4)n3cc(C#N)nc23)cc1 [Example 164] ; its IC50 = ≤ 0.25 µM

# compound Cc1nn(C)cc1-c1cnc(NCc2c(F)ccc3c2CCO3)n2cc(C#N)nc12 [Example 72] ; its IC50 = > 0.5 µM

# compound N#Cc1cn2c(NCc3c(F)ccc4c3CCO4)ncc(-c3ccc(C(=O)N4CCOCC4)cc3)c2n1 [Example 181] ; its IC50 = ≤ 0.25 µM

# compound [2H]C1Oc2ccc(F)c(C([2H])([2H])Nc3ncc(-c4ccc(CN(C)C)cc4C)c4nc(C#N)cn34)c2C1[2H] (stereo not shown) [Example 223] ; its IC50 = ≤ 0.25 µM

###

# pIC50 per record follows
Target: purified human, His-tagged PRC2 complex (Homo sapiens, UniProt O75530+Q15910)
Assay: Hot Spot HMT assay: inhibition of PRC2 enzymatic activity (transfer of tritiated methyl from SAM to core histone, filter binding)
Type: biochemical
Settings: Inhibition of PRC2-mediated enzymatic activity; 10 nM PRC2 complex, 0.05 mg/ml core histone H3, 1 uM 3H-SAM, 1 hr at 30°C
pIC50: −log10 of the molar value.

# compound N#Cc1cn2c(NCc3c(F)ccc4c3CCO4)ncc(-c3ccccc3C#N)c2n1 [Example 187] ; its pIC50 = > 7.00

# compound CN(C)Cc1ccc(-c2cnc(NCc3c(F)ccc4c3CCO4)n3cc(C#N)nc23)c(F)c1 [Example 61] ; its pIC50 = > 7.00

# compound Cc1nn(C[C@@H](C)O)c(C)c1-c1cnc(NCc2c(F)ccc3c2CCO3)n2cc(C#N)nc12 [Example 66] ; its pIC50 = 6.30 to 7.00

# compound N#Cc1cn2c(NCc3c(F)ccc4c3CCO4)ncc(-c3ccc4c(c3)CCNC4=O)c2n1 [Example 172] ; its pIC50 = > 7.00

# compound Cc1nn(C(C)C)cc1-c1cnc(NCc2c(F)ccc3c2CCO3)n2cc(C(N)=O)nc12 [Example 13] ; its pIC50 = > 7.00

# compound Cc1ncccc1-c1cnc(NCc2c(F)ccc3occc23)n2cc(C(N)=O)nc12 [Example 12] ; its pIC50 = > 7.00

# compound Cc1c(C#N)cccc1-c1cnc(NCc2c(F)ccc3c2CCO3)n2cc(C#N)nc12 [Example 176] ; its pIC50 = > 7.00

# compound [2H]C([2H])(c1ccc(-c2cnc(NCc3c(F)ccc4c3CCO4)n3cc(C#N)nc23)c(C)c1)N(C)C [Example 173] ; its pIC50 = > 7.00

# compound CN1CCC1c1ccc(-c2cnc(NCc3c(F)ccc4c3CCO4)n3cc(C#N)nc23)cc1 (stereo not shown) [Example 221] ; its pIC50 = > 7.00

# compound N#Cc1ccc(-c2cnc(NCc3c(F)ccc4c3CCO4)n3cc(C#N)nc23)cn1 [Example 128] ; its pIC50 = > 7.00

# compound Cc1cc(C(=O)N(C)C)c(F)cc1-c1cnc(NCc2c(F)ccc3c2CCO3)n2cc(C#N)nc12 [Example 43] ; its pIC50 = > 7.00

# compound N#Cc1cn2c(NCc3c(F)ccc4c3CCO4)ncc(-c3ccc(CN4CCCC4)cc3)c2n1 [Example 74] ; its pIC50 = > 7.00
